- Tested system: androgen receptor (AR) (Homo sapiens, UniProt P10275, T878A)
- Construct: stably transfected eGFP-expressing LNCaP human prostate cancer cells (LN-ARR2PB-eGFP) containing an androgen responsive probasin-derived promoter; endogenous in cells; host or cells: LNCaP (LN-ARR2PB-eGFP)
- Sequence (P10275 whole entry T878A): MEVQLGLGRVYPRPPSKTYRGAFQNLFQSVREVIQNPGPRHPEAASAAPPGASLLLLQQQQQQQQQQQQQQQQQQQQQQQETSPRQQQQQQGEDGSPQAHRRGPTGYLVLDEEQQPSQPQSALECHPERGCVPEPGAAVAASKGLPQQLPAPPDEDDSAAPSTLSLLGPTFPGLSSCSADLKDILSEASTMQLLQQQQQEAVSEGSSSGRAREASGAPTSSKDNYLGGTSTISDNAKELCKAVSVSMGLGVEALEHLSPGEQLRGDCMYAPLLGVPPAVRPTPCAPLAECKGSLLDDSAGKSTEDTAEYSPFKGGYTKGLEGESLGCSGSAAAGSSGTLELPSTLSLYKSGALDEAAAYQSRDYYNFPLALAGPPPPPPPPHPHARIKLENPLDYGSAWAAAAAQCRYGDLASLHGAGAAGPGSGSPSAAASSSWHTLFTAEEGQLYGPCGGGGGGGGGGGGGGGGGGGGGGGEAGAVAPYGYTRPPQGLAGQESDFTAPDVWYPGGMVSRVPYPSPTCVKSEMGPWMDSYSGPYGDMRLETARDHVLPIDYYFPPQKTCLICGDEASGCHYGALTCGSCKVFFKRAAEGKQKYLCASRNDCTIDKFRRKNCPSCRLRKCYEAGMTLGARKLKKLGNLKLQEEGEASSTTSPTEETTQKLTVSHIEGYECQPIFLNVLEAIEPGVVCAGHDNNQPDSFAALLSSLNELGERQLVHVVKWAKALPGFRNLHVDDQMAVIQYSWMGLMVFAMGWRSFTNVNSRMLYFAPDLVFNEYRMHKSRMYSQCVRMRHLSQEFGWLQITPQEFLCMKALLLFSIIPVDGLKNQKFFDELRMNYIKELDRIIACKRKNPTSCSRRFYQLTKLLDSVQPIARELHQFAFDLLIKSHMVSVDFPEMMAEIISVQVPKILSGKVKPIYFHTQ
- Assay method text: eGFP cellular AR transcription assay
- Assay type: cell-based
- Assay conditions: LN-ARR2PBeGFP LNCaP cells, 0.1 nM R1881, 3 days incubation; read-out: eGFP IC50

[
  {
    "Molecule": "Cc1ccc(CN(C(=O)c2cc3ccccc3[nH]2)C(C)C)o1",
    "Tested system": "androgen receptor (AR) (Homo sapiens, UniProt P10275, T878A)",
    "IC50 (nM)": 3200
  },
  {
    "Molecule": "Fc1ccc2c(-c3ccc4ccccc4n3)c[nH]c2c1",
    "Tested system": "androgen receptor (AR) (Homo sapiens, UniProt P10275, T878A)",
    "IC50 (nM)": 144
  },
  {
    "Molecule": "Fc1cc2[nH]cc(-c3ccc4c(F)cccc4n3)c2cc1F",
    "Tested system": "androgen receptor (AR) (Homo sapiens, UniProt P10275, T878A)",
    "IC50 (nM)": 110
  },
  {
    "Molecule": "CNC(=O)c1cccc2nc(-c3c[nH]c4c(N5CCOCC5)c(F)c(F)cc34)ccc12",
    "Tested system": "androgen receptor (AR) (Homo sapiens, UniProt P10275, T878A)",
    "IC50 (nM)": 3700
  },
  {
    "Molecule": "Fc1ccc(Cl)c2[nH]cc(-c3ccc4ccccc4n3)c12",
    "Tested system": "androgen receptor (AR) (Homo sapiens, UniProt P10275, T878A)",
    "IC50 (nM)": 549
  },
  {
    "Molecule": "Fc1ccc2ccc(-c3c[nH]c4c(Cl)cccc34)nc2c1",
    "Tested system": "androgen receptor (AR) (Homo sapiens, UniProt P10275, T878A)",
    "IC50 (nM)": 70
  },
  {
    "Molecule": "Cc1cccc2c(-c3cnc4ccccc4n3)c[nH]c12 [Compound 13585]",
    "Tested system": "androgen receptor (AR) (Homo sapiens, UniProt P10275, T878A)",
    "IC50 (nM)": 110
  },
  {
    "Molecule": "COC(=O)c1cccc2c(-c3ccc(Br)cc3)c[nH]c12",
    "Tested system": "androgen receptor (AR) (Homo sapiens, UniProt P10275, T878A)",
    "IC50 (nM)": 620
  },
  {
    "Molecule": "Fc1c(Cl)ccc2c(-c3ccc4ccccc4n3)c[nH]c12",
    "Tested system": "androgen receptor (AR) (Homo sapiens, UniProt P10275, T878A)",
    "IC50 (nM)": 11500
  },
  {
    "Molecule": "CCOC(=O)CN1c2ccccc2C(C)(C)C1c1c[nH]c2ccccc12 (centres unmarked)",
    "Tested system": "androgen receptor (AR) (Homo sapiens, UniProt P10275, T878A)",
    "IC50 (nM)": 2800
  },
  {
    "Molecule": "CCc1cccc2c(-c3ccc4ccccc4n3)c[nH]c12",
    "Tested system": "androgen receptor (AR) (Homo sapiens, UniProt P10275, T878A)",
    "IC50 (nM)": 200
  },
  {
    "Molecule": "Cc1cccc2c(C3Nc4ccccc4C34CCCCC4)c[nH]c12 (centres unmarked)",
    "Tested system": "androgen receptor (AR) (Homo sapiens, UniProt P10275, T878A)",
    "IC50 (nM)": 1700
  },
  {
    "Molecule": "Fc1cc(F)c2[nH]cc(-c3ccc4cccc(F)c4n3)c2c1",
    "Tested system": "androgen receptor (AR) (Homo sapiens, UniProt P10275, T878A)",
    "IC50 (nM)": 69
  },
  {
    "Molecule": "Cc1cccc2c(-c3ccc4c(CO)cccc4n3)c[nH]c12",
    "Tested system": "androgen receptor (AR) (Homo sapiens, UniProt P10275, T878A)",
    "IC50 (nM)": 800
  },
  {
    "Molecule": "CC1(C)c2ccccc2NC1c1c[nH]c2cnccc12 (centres unmarked)",
    "Tested system": "androgen receptor (AR) (Homo sapiens, UniProt P10275, T878A)",
    "IC50 (nM)": 10700
  },
  {
    "Molecule": "Cc1ccc(/N=N/c2c[nH]c3ccccc23)c(C)c1 [Compound 13423]",
    "Tested system": "androgen receptor (AR) (Homo sapiens, UniProt P10275, T878A)",
    "IC50 (nM)": 1100
  },
  {
    "Molecule": "S=C(c1c[nH]c2ccccc12)N1CCOCC1",
    "Tested system": "androgen receptor (AR) (Homo sapiens, UniProt P10275, T878A)",
    "IC50 (nM)": 3900
  },
  {
    "Molecule": "Cc1cccc2c(-c3nc(Br)cs3)c[nH]c12",
    "Tested system": "androgen receptor (AR) (Homo sapiens, UniProt P10275, T878A)",
    "IC50 (nM)": 45
  },
  {
    "Molecule": "O=C(c1cc2cc(F)ccc2[nH]1)N(Cc1ccco1)Cc1ccco1",
    "Tested system": "androgen receptor (AR) (Homo sapiens, UniProt P10275, T878A)",
    "IC50 (nM)": 5200
  },
  {
    "Molecule": "O=Nc1c(-c2c[nH]c3ccccc23)[nH]c2ccccc12",
    "Tested system": "androgen receptor (AR) (Homo sapiens, UniProt P10275, T878A)",
    "IC50 (nM)": 1900
  },
  {
    "Molecule": "Cc1ccc(/N=N/c2c[nH]c3ccccc23)cc1",
    "Tested system": "androgen receptor (AR) (Homo sapiens, UniProt P10275, T878A)",
    "IC50 (nM)": 4200
  },
  {
    "Molecule": "Fc1cccc2c(-c3ccc4ccccc4n3)c[nH]c12",
    "Tested system": "androgen receptor (AR) (Homo sapiens, UniProt P10275, T878A)",
    "IC50 (nM)": 1600
  },
  {
    "Molecule": "Fc1cc2c(-c3ccc4cccc(Cl)c4n3)c[nH]c2c(F)c1F",
    "Tested system": "androgen receptor (AR) (Homo sapiens, UniProt P10275, T878A)",
    "IC50 (nM)": 300
  },
  {
    "Molecule": "Cc1cccc2c(-c3ccc4ocnc4c3)c[nH]c12",
    "Tested system": "androgen receptor (AR) (Homo sapiens, UniProt P10275, T878A)",
    "IC50 (nM)": 300
  },
  {
    "Molecule": "Fc1ccc(CSc2c[nH]c3ccccc23)cc1",
    "Tested system": "androgen receptor (AR) (Homo sapiens, UniProt P10275, T878A)",
    "IC50 (nM)": 1200
  },
  {
    "Molecule": "N#C/C(=C\\c1ccc(C(F)(F)F)cc1)c1c[nH]c2ccccc12",
    "Tested system": "androgen receptor (AR) (Homo sapiens, UniProt P10275, T878A)",
    "IC50 (nM)": 800
  },
  {
    "Molecule": "COc1cccc2c(-c3cc(C)c4ccccc4n3)c[nH]c12",
    "Tested system": "androgen receptor (AR) (Homo sapiens, UniProt P10275, T878A)",
    "IC50 (nM)": 590
  },
  {
    "Molecule": "Cc1cc(F)cc2c(-c3cnc4ccc(F)cc4n3)c[nH]c12",
    "Tested system": "androgen receptor (AR) (Homo sapiens, UniProt P10275, T878A)",
    "IC50 (nM)": 490
  },
  {
    "Molecule": "Cn1c(-c2c[nH]c3ccccc23)cc2ccccc21",
    "Tested system": "androgen receptor (AR) (Homo sapiens, UniProt P10275, T878A)",
    "IC50 (nM)": 3400
  },
  {
    "Molecule": "C[C@@H]1Cc2ccccc2N1c1nc2ccccc2o1 [Compound 13261]",
    "Tested system": "androgen receptor (AR) (Homo sapiens, UniProt P10275, T878A)",
    "IC50 (nM)": 2100
  },
  {
    "Molecule": "Cc1[nH]c2ccccc2c1-c1ccc2ccccc2n1",
    "Tested system": "androgen receptor (AR) (Homo sapiens, UniProt P10275, T878A)",
    "IC50 (nM)": 20000
  },
  {
    "Molecule": "N#Cc1cc(F)cc2c(-c3ccc4cccc(Cl)c4n3)c[nH]c12",
    "Tested system": "androgen receptor (AR) (Homo sapiens, UniProt P10275, T878A)",
    "IC50 (nM)": 420
  },
  {
    "Molecule": "Cc1cc(F)cc2c(-c3ccc4cccc(F)c4n3)c[nH]c12",
    "Tested system": "androgen receptor (AR) (Homo sapiens, UniProt P10275, T878A)",
    "IC50 (nM)": 290
  },
  {
    "Molecule": "Oc1cccc2c(C3Nc4ccccc4C34CCCCC4)c[nH]c12 (centres unmarked)",
    "Tested system": "androgen receptor (AR) (Homo sapiens, UniProt P10275, T878A)",
    "IC50 (nM)": 1130
  },
  {
    "Molecule": "COc1ccc(/N=C/c2c[nH]c3ccccc23)cc1",
    "Tested system": "androgen receptor (AR) (Homo sapiens, UniProt P10275, T878A)",
    "IC50 (nM)": 9300
  },
  {
    "Molecule": "C[C@@H]1Cc2ccccc2N1c1nc2ccccc2o1 [Compound 13245]",
    "Tested system": "androgen receptor (AR) (Homo sapiens, UniProt P10275, T878A)",
    "IC50 (nM)": 1700
  },
  {
    "Molecule": "Fc1ccc2ccc(-c3c[nH]c4c(F)c(F)c(F)cc34)nc2c1",
    "Tested system": "androgen receptor (AR) (Homo sapiens, UniProt P10275, T878A)",
    "IC50 (nM)": 200
  },
  {
    "Molecule": "Cc1cccc2c(-c3ccc4cccnc4c3)c[nH]c12",
    "Tested system": "androgen receptor (AR) (Homo sapiens, UniProt P10275, T878A)",
    "IC50 (nM)": 760
  }
]
